- Test system: S. cerevisiae expressing PfHSP40, growth rescue, plate reader
- Assay Remarks: Yeast growth rescue from Plasmodium falciparum HSP40 toxicity, dose response confirmatory, plate reader (AID 540271);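 also: yeast growth read after three days of incubation at 30 °C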
Each record here notes measured AC50.

These solved cases illustrate the format of a correct answer.
[[record]]
molecule = "COC(=O)c1cccc2c1-c1ccccc1/C2=N/O"
target_desc = "S. cerevisiae expressing PfHSP40, growth rescue, plate reader"
reading = "4.95 µM"

[[record]]
molecule = "C[C@H](O)[C@H]1CC[C@H]2[C@@H]3CCC4=CC(=O)CC[C@]4(C)[C@H]3CC[C@]12C"
target_desc = "S. cerevisiae expressing PfHSP40, growth rescue, plate reader"
reading = "6.85 µM"

[[record]]
molecule = "Cc1ccoc1C(=O)Nc1cccc(Oc2ccccc2)c1"
target_desc = "S. cerevisiae expressing PfHSP40, growth rescue, plate reader"
reading = "2.85 µM"

[[record]]
molecule = "CN(C)c1nc(-c2ccccn2)nnc1-c1ccccc1"
target_desc = "S. cerevisiae expressing PfHSP40, growth rescue, plate reader"
reading = "5.25 µM"

[[record]]
molecule = "CCCOc1ccc(N2C(=O)CC(N3CCC(C(=O)OCC)CC3)C2=O)cc1 (stereo unspecified)"
target_desc = "S. cerevisiae expressing PfHSP40, growth rescue, plate reader"
reading = "6.34 µM"


Let us examine a further case.
The molecule identified as `O=c1c2ccccc2c(-c2ccc(O)cc2)nn1-c1cccc(C(F)(F)F)c1` registered its AC50 at 3.92 µM

---

- System: S. cerevisiae expressing PfHSP40, growth rescue, plate reader
- Assay Remarks: Yeast growth rescue from Plasmodium falciparum HSP40 toxicity, dose response confirmatory, plate reader (AID 540271);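 also: yeast growth read after three days of incubation at 30 °C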
Active and inactive are the calls of the source. No rule for the calls is given here.
Each record here notes measured AC50.

These solved cases illustrate the format of a correct answer.
[[record]]
compound = "Cc1cc([N+](=O)[O-])c(NC2CCCCC2)c([N+](=O)[O-])c1"
target_desc = "S. cerevisiae expressing PfHSP40, growth rescue, plate reader"
reading = "9.82 µM"

[[record]]
compound = "COc1ccccc1CNC(=O)CSc1ccc(-c2ccccn2)nn1"
target_desc = "S. cerevisiae expressing PfHSP40, growth rescue, plate reader"
reading = "5.89 µM"

[[record]]
compound = "OCCN(CCO)c1cc2c3ccccc3ccc2c2ccccc12"
target_desc = "S. cerevisiae expressing PfHSP40, growth rescue, plate reader"
reading = "5.56 µM"

[[record]]
compound = "Cn1ccsc1=NC(=O)c1ccc([N+](=O)[O-])o1"
target_desc = "S. cerevisiae expressing PfHSP40, growth rescue, plate reader"
reading = "> 12 µM (inactive)"

[[record]]
compound = "CCc1cc(C(N)=O)c(NC(=O)c2ccc(OC)cc2)s1"
target_desc = "S. cerevisiae expressing PfHSP40, growth rescue, plate reader"
reading = "1.77 µM"


Let us examine a further case.
AC50 for S. cerevisiae expressing PfHSP40, growth rescue, plate reader with input COC(=O)C1=NN(C(=O)c2cccc(Br)c2)C(O)(c2ccc(Cl)cc2)C1 (stereo unspecified) equals 5.82 µM

---

- System: S. cerevisiae expressing PfHSP40, growth rescue, plate reader
- Assay Remarks: Yeast growth rescue from Plasmodium falciparum HSP40 toxicity, dose response confirmatory, plate reader (AID 540271);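 also: yeast growth read after three days of incubation at 30 °C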
Parameter Measured: AC50

These solved cases illustrate the format of a correct answer.
[[record]]
compound = "CC(=O)NC(c1ccc(C)cc1)c1cc([N+](=O)[O-])c2cccnc2c1O (stereo unspecified)"
target_desc = "S. cerevisiae expressing PfHSP40, growth rescue, plate reader"
parameter_measured = "AC50"
reading = "8.83 µM"

[[record]]
compound = "CCC(C)n1ncn(-c2ccc(N3CCN(c4ccc(OCC5COC(Cn6cncn6)(c6ccc(Cl)cc6Cl)O5)cc4)CC3)cc2)c1=O (stereo unspecified)"
target_desc = "S. cerevisiae expressing PfHSP40, growth rescue, plate reader"
parameter_measured = "AC50"
reading = "0.129 µM"

[[record]]
compound = "CC1CCN(c2ccc3c(c2)S(=O)(=O)c2ccccc2C3=O)CC1"
target_desc = "S. cerevisiae expressing PfHSP40, growth rescue, plate reader"
parameter_measured = "AC50"
reading = "9.89 µM"

[[record]]
compound = "COc1ccc(C2=CC(=O)C[C@H](c3ccc4c(c3)OCO4)C2)cc1"
target_desc = "S. cerevisiae expressing PfHSP40, growth rescue, plate reader"
parameter_measured = "AC50"
reading = "6.93 µM"


The compound identified as `COc1ccc(/C=N/Nc2cc(C)nc(-n3nc(C)cc3C)n2)cc1` registered its AC50 at 5.99 µM

The compound identified as `CCCn1c2ccccc2c2cc(C(=O)O)ccc21` registered its AC50 at 7.09 µM

The compound identified as `Cc1ccc(Nc2cc(C)nn2-c2nc(C)cc(C)n2)cc1` registered its AC50 at 3.95 µM

The compound identified as `Fc1ccc(CCNC(=S)Nc2ccc(F)c(Cl)c2)cc1` registered its AC50 at 7.64 µM

The compound identified as `COc1cc(/C=C2\SC(=S)N(NS(=O)(=O)c3ccc(C)cc3)C2=O)ccc1O` registered its AC50 at 7.05 µM

The compound identified as `Cc1n[nH]c(C)c1N=Nc1ccc(Br)cc1` registered its AC50 at 6.88 µM

The compound identified as `O=C(Nc1ccc(Cl)cc1C(=O)Nc1ccc(Br)cn1)c1ccco1` registered its AC50 at 3.64 µM
